Values were extracted from PubChem BioAssay (EPA / NIEHS).

# ASSAY COMMENT: APR_HepG2_NuclearSize_72hr: Apredica 72-hour HepG2 Assay for Nuclear Size (AID 2282925)
# MEASUREMENT SETUP: high-content imaging, actives raise or lower the signal
Active and inactive are the calls of the source. How the source made its calls: active means hit-call score of the fitted dose curve at least 0.9, where 1 is the maximum; inactive means score below 0.9.
RESULT TYPE: AC50

> print(dat)
                                    compound  result.type            result
 1                             CCCCCCCCCCCCO         AC50          inactive
 2  COc1ccc2cc(S(=O)(=O)N[C@H](CC(=O)N[C@H](Cc3ccc(CN4[C@H](C)CCC[C@@H]4C)cc3)C(=O)N(C)C(C)C)c3ccc4c(c3)OCO4)ccc2c1         AC50          inactive
 3  CC(C)(C)c1csc(-c2cc3cc(OCc4ccccc4CC(=O)O)ccc3o2)n1         AC50          inactive
 4  Cc1cn([C@H]2C[C@H](N=[N+]=[N-])[C@@H](CO)O2)c(=O)[nH]c1=O         AC50          inactive
 5                          O=c1ccc2ccccc2o1         AC50          inactive
 6  O=C(O)c1ccccc1-n1cc(C(=O)O)c(=O)c2cc(Nc3c(F)cc(F)cc3Cl)c(Cl)cc21         AC50          inactive
 7         CC(O)CC(C)(C)O (stereo not drawn)         AC50          inactive
 8        O=C(OCCCCCCOC(=O)c1ccccc1)c1ccccc1         AC50          inactive
 9  CC(=O)N1CCN(c2ccc(OC[C@H]3CO[C@](Cn4ccnc4)(c4ccc(Cl)cc4Cl)O3)cc2)CC1         AC50          inactive
10  NCc1cccc(C2CCN(C(=O)c3ccc(C#Cc4ccccc4F)o3)CC2)c1         AC50   107 µM (active)
11               CCO[Si](CCCNC(N)=O)(OCC)OCC         AC50          inactive
12                     CCCCOC(=O)c1ccc(O)cc1         AC50          inactive
13  CC(C)(C)c1cc(/C=C2\SC(N)=NC2=O)cc(C(C)(C)C)c1O         AC50          inactive
14            Cc1c2ccccc2c(C)c2c1ccc1ccccc12         AC50  54.7 µM (active)
15  Cc1cc2c(cc1C(F)(F)F)N(C(=O)Nc1ccc(Oc3cccnc3C)nc1)CC2         AC50          inactive
16       O=C(Nc1ccc(Cl)cc1)Nc1ccc(Cl)c(Cl)c1         AC50          inactive
17    Clc1ccccc1C(c1ccccc1)(c1ccccc1)n1ccnc1         AC50  55.5 µM (active)
18  OC12N=C(c3ccccc3)SC1Cc1cc(Cl)ccc12 (stereo not drawn)         AC50          inactive
19              CC1=CC(=O)/C(=C(/C)O)C(=O)O1         AC50          inactive
20  NC(=O)c1nc(-c2cccc(-c3cc(F)ccc3OCC(F)(F)C(F)(F)F)c2)n[nH]1         AC50   100 µM (active)
21       CC/C(=C(/CC)c1ccc(O)cc1)c1ccc(O)cc1         AC50          inactive
22                        O=c1[nH]sc2ccccc12         AC50          inactive
23                        Cc1ncc(CO)c(CO)c1O         AC50          inactive
24  CN1C(=O)N(c2ccccc2Br)Cc2cnc(Nc3ccc4c(c3)OCC(CO)O4)nc21 (stereo not drawn)         AC50          inactive
25  O=C1c2ccccc2C(=O)N1CCc1noc(-c2ccc(CN3CCCCCC3)s2)n1         AC50          inactive
26  COc1cc(C(=O)NC2CCN(C)CC2)ccc1Nc1ncc2c(n1)N(C1CCCC1)CC(F)(F)C(=O)N2C         AC50          inactive
27  CN(C)c1ccc(C(=C2C=CC(=[N+](C)C)C=C2)c2ccc(N(C)C)cc2)cc1         AC50          inactive
28  CCN(CC)C(=O)c1cc(S(=O)(=O)Cc2ccccc2)c(N2CCC(c3ccccc3)CC2)cc1N(CC)CCN(C)C         AC50          inactive
29  Cc1cc(F)ccc1-c1cc(N2CC[C@@H](O)[C@H]2CO)ncc1N(C)C(=O)C(C)(C)c1cc(C(F)(F)F)cc(C(F)(F)F)c1         AC50          inactive
30  CCCCOC(=O)CC(CC(=O)OCCCC)(OC(C)=O)C(=O)OCCCC         AC50          inactive
31                   CCCCCCCCCCCC[N+](C)(C)C         AC50          inactive
32  CC(C)(c1cc(Br)c(O)c(Br)c1)c1cc(Br)c(O)c(Br)c1         AC50  77.7 µM (active)
33                 CCCCCCCC[Si](OCC)(OCC)OCC         AC50          inactive
